# measured_on: T1, biotinylated NbALFA (NanoTag) (biotinylated (site not stated))
# T1 construct: Bought from NanoTag and captured on the SPR chip through biotin; also called NbALFA-nanobody; Nanobody
# procedure_summary: SPR, Biacore T200, biotinylated NbALFA captured on Biotin CAPture chip, peptide as analyte, multi-cycle kinetics, 1:1 model, 25 C
Bridge positions count the residues as written; N and C are the ends.
assay_endpoint: pKd
Keep in mind that pKd stands for -log10 of concentration in molar terms.

Quick note, pKd for Ac-SRLEEELKRRLTE-NH2 (lactam 5-8; SMILES CC(=O)N[C@@H](CO)C(=O)N[C@@H](CCCNC(=N)N)C(=O)N[C@@H](CC(C)C)C(=O)N[C@@H](CCC(=O)O)C(=O)N[C@H]1CCC(=O)NCCCC[C@@H](C(=O)N[C@@H](CCCNC(=N)N)C(=O)N[C@@H](CCCNC(=N)N)C(=O)N[C@@H](CC(C)C)C(=O)N[C@H](C(=O)N[C@@H](CCC(=O)O)C(N)=O)[C@@H](C)O)NC(=O)[C@H](CC(C)C)NC(=O)[C@H](CCC(=O)O)NC1=O, Cyclic ALFA tag; also called SD15192) [Ac-Ser-Arg-Leu-Glu-(cyclo5)Glu-Glu-Leu-(cyclo8)Lys-Arg-Arg-Leu-Thr-Glu-NH2] landed at 10.26

Source: patent US20250154202A1
